tgt: GPR139 (Homo sapiens)
Sequence (Q6DWJ6 whole entry): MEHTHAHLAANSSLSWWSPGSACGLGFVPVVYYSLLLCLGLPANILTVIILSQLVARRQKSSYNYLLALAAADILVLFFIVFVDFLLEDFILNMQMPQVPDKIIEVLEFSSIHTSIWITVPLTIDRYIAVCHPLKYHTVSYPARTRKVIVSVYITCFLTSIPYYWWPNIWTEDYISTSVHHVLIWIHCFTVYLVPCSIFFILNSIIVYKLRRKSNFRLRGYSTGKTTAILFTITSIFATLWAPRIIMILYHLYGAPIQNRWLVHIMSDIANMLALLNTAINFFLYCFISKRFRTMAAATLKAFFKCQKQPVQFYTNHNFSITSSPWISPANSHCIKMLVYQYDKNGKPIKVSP
procedure_summary: GPR139 Agonist titration / agonist counterscreen assay (calcium detection, HEK-GPR139 cells)
Assay type: cell-based
Parameters: expressed in transfected cells; host or cells: HEK Aequorin cells, Maxcyte transient transfection
experimental_parameters: GPR139 Agonist Activity
endpoint_label: Efficiency Ligand
Reply with just the number.

Answered examples (8):
molecule | endpoint_label | reported_measurement
CC(C(=O)NCCn1nnn(-c2ccccc2)c1=O)n1nc2ccccc2n1 (stereo not drawn) | Efficiency Ligand | 0.32
O=C(CN1C(=O)NC2(CCc3ccccc3C2)C1=O)Nc1cccc2ccccc12 (stereo not drawn) | Efficiency Ligand | 0.29
Cc1cc(Br)ccc1OCC(=O)NNC(=O)c1ccccc1C | Efficiency Ligand | 0.36
COc1ccccc1CN1CCNC(=O)C1CC(=O)NCCCN1CCc2ccccc21 (stereo not drawn) | Efficiency Ligand | 0.27
COc1ccc(C)cc1NC(=O)NNC(=O)C(C)Oc1ccc(F)cc1Cl (stereo not drawn) | Efficiency Ligand | 0.33
CCOC(=O)c1cccc(NC(=O)Cc2cccc3ccccc23)c1 | Efficiency Ligand | 0.33
O=C(CCc1ccccc1)NNC(=O)C12CC3CC(CC(C3)C1)C2 | Efficiency Ligand | 0.37
Cc1ccc(CN2CCN(CC(=O)NCCc3ccc(Cl)cc3)C2=O)c(Cl)c1 | Efficiency Ligand | 0.30

Prompt line: State its Efficiency Ligand: Cc1ccc(Nc2cn[nH]c(=S)n2)c(C)c1
Response line: 0.54
